B1: FERM and PDZ domain-containing protein 4, residues 75 to 154; numbered along this chain, Q14CM0 (parent)
chain: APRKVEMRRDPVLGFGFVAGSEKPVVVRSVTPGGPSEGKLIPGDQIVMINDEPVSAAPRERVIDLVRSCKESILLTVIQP

- Variants of: B1
- Assay summary: abundance fitness (aPCA) (normalised: wild type 0, dead -1); higher = more abundant; growth selection in yeast, the domain comes from the species named
- Condition parameters: Homo sapiens
abundance fitness for assorted variants
Measured endpoint: abundance fitness

| Variant description | Result value |
| --- | --- |
| F15N | -0.848 |
| R3V | -0.165 |
| L65R | -0.093 |
| V30F | -0.416 |
| M7G | -0.877 |
| G14D | -0.025 |
| P58H | -0.09 |
| R67M | -0.064 |
| G34N | -1.07 |
| V27E | -0.725 |
| P32F | -0.206 |
| E71D | 0 |
| P24V | -0.725 |
| I63L | 0.009 |
| K39M | -0.045 |
| F17L | -0.294 |
| P58D | -0.061 |
| V27T | -0.705 |
| E71I | -0.261 |
| A1G | -0.157 |
| P24K | -0.64 |
| V5A | -0.219 |
| E37M | -0.122 |
| I78T | 0.037 |
| M7F | -0.085 |
| G34P | -0.92 |
| G16D | -0.783 |
| A19K | -0.594 |
| K39Y | -0.068 |
| V25W | -0.078 |
| S68T | -0.043 |
| F17D | -0.921 |
| I49G | -0.887 |
| G38L | -0.21 |
| S29T | -0.029 |
| V18W | -0.38 |
| R3D | -0.659 |
| E22Y | -0.012 |
| E22V | -0.066 |
| I78R | 0.005 |
| E22K | -0.199 |
| S68L | -0.092 |
| M7I | 0.018 |
| P2Y | -0.004 |
| P58I | -0.29 |
| F15E | -0.805 |
| V18N | -0.104 |
| E22W | -0.305 |
| M7S | -0.535 |
| P35K | -0.59 |
| I41D | -0.063 |
| G38D | -0.061 |
| P24C | -0.51 |
| T31R | -0.034 |
| P24T | -0.471 |
| K39G | -0.264 |
| E6F | 0.043 |
| L40A | -0.871 |
| R59C | -0.03 |
| R9F | -0.031 |
| V62T | -0.25 |
| I63K | -0.032 |
| R61W | -0.082 |
| I46F | -0.255 |
| P35G | -0.661 |
| P58V | -0.167 |
| K39C | -0.036 |
| V27A | -0.591 |
| N50L | -0.361 |
| P42W | -0.477 |
| P42A | -0.036 |
